Source: paper PMC6720511

assay remarks: Cell death inhibition assay
Format: cell-based, human
condition set: human, HepG2 cells, 10g alone, 10 µM, read-out: relative cell viability of HepG2 cells
attribute measured: viability at 24 h, 10 µM (%)
Could you give me the number in %? Just the number is fine.

Prompt line: # viability at 24 h, 10 µM lookup, item CCOc1ccc2c(c1)c1c(n2CCN2CCNCC2)-c2cc(C(C)C)ccc2C2(C)CCCC(C)(C(=O)OC)C12 (stereo not shown) [Compound 10g]
Response line: 1.22

====

study system: MEK1 (Homo sapiens, UniProt Q02750)
Sequence (Q02750 whole entry): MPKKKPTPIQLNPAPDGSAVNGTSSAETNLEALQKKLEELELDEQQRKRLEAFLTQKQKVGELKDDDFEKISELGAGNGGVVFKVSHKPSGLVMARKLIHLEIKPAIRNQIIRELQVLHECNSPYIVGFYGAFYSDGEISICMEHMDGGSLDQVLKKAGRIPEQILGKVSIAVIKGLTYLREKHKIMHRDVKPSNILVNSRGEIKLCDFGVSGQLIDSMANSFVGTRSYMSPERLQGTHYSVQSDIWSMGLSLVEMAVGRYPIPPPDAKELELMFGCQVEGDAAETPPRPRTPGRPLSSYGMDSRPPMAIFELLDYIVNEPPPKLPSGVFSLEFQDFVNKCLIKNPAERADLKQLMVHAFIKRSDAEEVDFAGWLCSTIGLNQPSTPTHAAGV
assay remarks: In vitro MEK1 inhibition assay (ADP-Glo kinase assay)
condition set: recombinant GST-MEK1, GST-ERK2, 10 µM ATP, mean value ± SD; read-out: MEK1 inhibitory activity IC50 value
Procedure: An in vitro kinase assay of MEK1 was performed using ADP-Glo kinase assay (Promega, Madison, WI, USA) according to the manufacturer’s protocol. […] Reactions were stopped by adding 5 µL of ADP-Glo reagent to each well. After incubating at 22 °C for 40 min, 10 µL of the kinase detection reagent was added and the plates were incubated for another 30 min at 22 °C in the dark. The reaction mixture was analysed by EnSpire (PerkinElmer, Waltham, MA, USA). […]
Measured pIC50, listed per entry.
Just the number, please; pIC50 means minus log10 of the concentration in mol/L.

compound: COC(=O)C1(C)CCCC2(C)c3ccc(C(C)C)cc3-c3c(c4cccc(OC)c4n3CCN3CCNCC3)C12 (stereo not shown) [Compound 10f]
attribute measured: pIC50
endpoint value: 6.64

Prompt line: # pIC50 lookup, item CCOc1cccc2c3c(n(CCN4CCNCC4)c12)-c1cc(C(C)C)ccc1C1(C)CCCC(C)(C(=O)OC)C31 (stereo not shown) [Compound 10h]
Response line: 5.79

Prompt line: # pIC50 lookup, item COC(=O)C1(C)CCCC2(C)c3ccc(C(C)C)cc3-c3c(c4ccccc4n3CCN3CCNCC3)C12 (stereo not shown)
Response line: 4.88

====

Test system: HepG2
assay remarks: MTT cytotoxic assay
Format: cell-based, human
condition set: Homo sapiens, HepG2, 48 h, mean value ± SD
Mark Yes only when IC50 stays strictly below 6 µM. Values equal to the cut-off are No.

Completed entries (count: 4):
compound: COC(=O)C1(C)CCCC2(C)c3ccc(C(C)C)cc3-c3c(c4cc(F)ccc4n3CCN3CCNCC3)C12 (stereo not drawn) [Compound 10i]
label class: Yes
//
compound: CCOc1cccc2c3c(n(CCN4CCNCC4)c12)-c1cc(C(C)C)ccc1C1(C)CCCC(C)(C(=O)OC)C31 (stereo not drawn) [Compound 10h]
label class: Yes
//
compound: COC(=O)C1(C)CCCC2(C)c3ccc(C(C)C)cc3-c3c(c4ccccc4n3CCN3CCN(C=O)CC3)C12 (stereo not drawn)
label class: No
//
compound: COC(=O)C1(C)CCCC2(C)c3ccc(C(C)C)cc3-c3c(c4cc(Cl)ccc4n3CCN3CCNCC3)C12 (stereo not drawn) [Compound 10j]
label class: Yes

Prompt line: Find out if reported IC50 for COC(=O)C1(C)CCCC2(C)c3ccc(C(C)C)cc3-c3c(c4ccccc4n3CCCN3CCN(C)CC3)C12 (stereo not drawn) is less than 6 µM
Response line: No

====

Test system: HepG2
assay remarks: MTT cytotoxic assay
Type: cell-based, human
condition set: Homo sapiens, HepG2, 48 h, mean value ± SD
pIC50: −log10 of the molar value.
attribute measured: pIC50

Example entries begin here.
compound: COC(=O)C1(C)CCCC2(C)c3ccc(C(C)C)cc3-c3c(c4ccccc4n3CCN3CCN(Cc4ccccc4)CC3)C12 (stereo not drawn) [Compound 6h]
attribute measured: pIC50
endpoint value: < 4.30
--
compound: COC(=O)C1(C)CCCC2(C)c3ccc(C(C)C)cc3-c3c(c4ccccc4n3CCN3CCN(c4ccccc4)CC3)C12 (stereo not drawn) [Compound 6f]
attribute measured: pIC50
endpoint value: < 4.30

Prompt line: Can you look up pIC50 on HepG2 for COC(=O)C1(C)CCCC2(C)c3ccc(C(C)C)cc3-c3c(c4ccccc4n3CCN3CCN(c4ccccn4)CC3)C12 (stereo not drawn) [Compound 6g] ?
Response line: < 4.30
